The values you see were collected from ChEMBL document CHEMBL1124631.

System: Cavia porcellus
assay comment: Methacholine challenge test was performed on guinea pigs by administration of compound at 25 mg/kg perorally
Assay type: functional
assay setup: route oral
Task for the reader: assign each of the following molecules its reported Collapse time.
Numbers only, in min.

// known answers, use as guide
Field Collapse time (Cavia porcellus), entry `O=c1oc2ccccc2c2c1CN(CCN1CC3CCC(CC3)C1)CC2` : 5.2

Observed Collapse time on Cavia porcellus, entry CCN(C)C(C)CN1CCc2c(c(=O)oc3cc(C)ccc23)C1 (centres undefined) , equals 8.8

// Collapse time (Cavia porcellus) for `CCN(CC)CCN1CCc2c(c(=O)oc3cc(OC)ccc23)C1` = 8

Others:
# Cc1ccc2c3c(c(=O)oc2c1)CN(CC(C)N1CCCCC1)CC3 (centres undefined) with Cavia porcellus: Collapse time is 9.7
